Provenance of the data: patent US10590128B2

target: human dopamine D2 receptor (hD2R) (Homo sapiens, UniProt P14416); assay: Human D2 receptor binding assay ([^3H]-Spiperone); settings: CHO cells expressing hD2R, geometric mean of 2-5 determinations unless marked b (single determination)
Sequence (P14416 whole entry): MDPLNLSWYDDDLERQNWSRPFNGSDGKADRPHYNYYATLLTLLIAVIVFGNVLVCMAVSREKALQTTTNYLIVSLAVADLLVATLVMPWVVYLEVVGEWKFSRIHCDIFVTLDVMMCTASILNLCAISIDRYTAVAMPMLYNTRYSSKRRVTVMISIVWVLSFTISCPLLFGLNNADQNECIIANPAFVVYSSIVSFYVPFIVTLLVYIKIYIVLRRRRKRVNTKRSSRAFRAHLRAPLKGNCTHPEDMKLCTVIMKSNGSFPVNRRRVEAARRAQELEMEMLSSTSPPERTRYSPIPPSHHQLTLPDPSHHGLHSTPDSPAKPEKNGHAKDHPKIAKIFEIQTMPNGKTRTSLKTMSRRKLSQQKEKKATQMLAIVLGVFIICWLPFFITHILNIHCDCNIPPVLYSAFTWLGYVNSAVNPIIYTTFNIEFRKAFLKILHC
readoutLabel: log10 of Ki (log10 of the value in nM)
Values reflect log10 of reported Ki (nM).

Observe how each entry below is paired with its result.
{"columns": ["smilesData", "log10 of Ki"],
 "data": [
  ["CCN1CCc2cc(NS(=O)(=O)c3ccc(C4CCCCC4)nc3)c(OC)nc2CC1", 2.16],
  ["COc1nc2c(cc1NS(=O)(=O)c1ccc(C3CCC3)nc1)CCN(C)CC2", 2.16],
  ["COc1nc2c(cc1NS(=O)(=O)c1cnc(C3CCC3)c(F)c1)CCN(C)CC2", 2.37],
  ["COc1nc2c(cc1NS(=O)(=O)c1ccc([C@]3(F)C[C@H](C)C3)nc1)CCN(C)CC2", 3.09],
  ["CCN1CCc2cc(NS(=O)(=O)c3ccc([C@H]4C[C@@H](OCCF)C4)cc3)c(OC)nc2CC1", 1.95]
]}

Consider the additional molecule presented here.
In: Write down measured log10 of Ki (human dopamine D2 receptor (hD2R) (Homo sapiens, UniProt P14416)) for this molecule. CCN1CCc2cc(NS(=O)(=O)c3ccc(C4(F)CCCC4)nc3)c(OC)nc2CC1
Out: 2.83
